Data origin, for the record: paper PMC5797729

tgt: Gorilla α4 GlyR (Gorilla gorilla)
Construct: full-length synthetic predicted cDNA in pRK5, homomeric pentamer, HEK293 cells
Sequence (G3RDJ8 29-457): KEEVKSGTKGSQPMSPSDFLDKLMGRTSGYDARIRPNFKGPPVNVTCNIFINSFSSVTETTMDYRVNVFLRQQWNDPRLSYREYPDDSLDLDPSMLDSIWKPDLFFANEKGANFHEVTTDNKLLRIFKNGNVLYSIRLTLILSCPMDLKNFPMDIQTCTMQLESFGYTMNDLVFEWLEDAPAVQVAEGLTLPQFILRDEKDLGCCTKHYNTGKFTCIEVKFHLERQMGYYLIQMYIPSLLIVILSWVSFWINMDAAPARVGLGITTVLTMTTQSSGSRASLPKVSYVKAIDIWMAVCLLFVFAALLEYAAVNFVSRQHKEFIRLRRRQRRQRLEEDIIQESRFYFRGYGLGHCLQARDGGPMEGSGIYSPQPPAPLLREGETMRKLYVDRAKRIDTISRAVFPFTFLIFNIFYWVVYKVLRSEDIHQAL
assay-overview: whole-cell patch clamp, Hill fit
measurement-label: pEC50
pEC50 (log units): -log10 of the concentration in mol/L.

[ask] Which pEC50 is listed for NCC(=O)O [glycine] ?
[reply] 4.07

###

tgt: Mouse α4 GlyR (Mus musculus)
Construct: gene Glra4; full-length wild-type cDNA from whole brain in pRK5, homomeric pentamer, HEK293 cells
Sequence (Q61603 28-456): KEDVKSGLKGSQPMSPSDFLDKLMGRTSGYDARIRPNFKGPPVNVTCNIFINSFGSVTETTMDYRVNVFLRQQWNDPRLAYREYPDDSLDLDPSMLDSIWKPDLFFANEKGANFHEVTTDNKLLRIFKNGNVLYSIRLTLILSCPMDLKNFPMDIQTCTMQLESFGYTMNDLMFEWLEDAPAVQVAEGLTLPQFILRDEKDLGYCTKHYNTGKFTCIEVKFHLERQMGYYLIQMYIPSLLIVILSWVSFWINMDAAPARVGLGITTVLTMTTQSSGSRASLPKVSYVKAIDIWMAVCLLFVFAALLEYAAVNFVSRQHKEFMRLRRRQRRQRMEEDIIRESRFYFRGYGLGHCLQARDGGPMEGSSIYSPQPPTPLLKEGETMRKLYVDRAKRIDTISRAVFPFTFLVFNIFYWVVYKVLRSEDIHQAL
assay-overview: whole-cell patch clamp, Hill fit
Assay type: cell-based
Excerpt: whole-cell patch clamp, Hill fit on Mouse α4 GlyR
measurement-label: pEC50
pEC50 (log units): -log10 of the concentration in mol/L.

[ask] Which pEC50 is listed for NCC(=O)O ?
[reply] 4.21
